# STUDY TARGET: T1, Anti-CD28 Fab (SEQ ID NOs: 696, 697)
# T1 construct: Biotinylated and captured on neutravidin coated plates in the phage ELISA
# T1 sequence (VH, as listed by the source, chain 1 of 2): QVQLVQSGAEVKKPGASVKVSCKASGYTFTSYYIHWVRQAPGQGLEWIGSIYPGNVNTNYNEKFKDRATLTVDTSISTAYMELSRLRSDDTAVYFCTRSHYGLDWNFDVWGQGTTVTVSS
# T1 sequence (VL, as listed by the source, chain 2 of 2): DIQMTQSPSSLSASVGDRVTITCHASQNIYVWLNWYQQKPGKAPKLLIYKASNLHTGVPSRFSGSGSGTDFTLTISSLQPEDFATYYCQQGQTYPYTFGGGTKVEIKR
# PROTOCOL: phage binding ELISA, clonal phage on biotinylated anti-CD28 Fab captured on neutravidin plates;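 further: crude clonal phage supernatants added to wells pretreated with CD28 antigen or blocking buffer only, bound phage detected by HRP-linked anti-M13 antibody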
ASSAY READOUT: Anti-CD28 Fab (SEQ ID NOs: 696, 697) signal
Could you respond with only the numeric value?

In the examples that follow, each entry is paired with its recorded Anti-CD28 Fab (SEQ ID NOs: 696, 697) signal.
BINDER	QUANTITATIVE RESULT
YCDGHSLQYMDKCL (Peptide-87 library clone, tested as clonal phage (peptide fused to pIII)) [Phage-855]	1.75
YCEGHLPDYMQKCL (Peptide-87 library clone, tested as clonal phage (peptide fused to pIII)) [Phage-862]	1.73
YCDGHASEYMAKCL (Peptide-87 library clone, tested as clonal phage (peptide fused to pIII)) [Phage-857]	1.75

Sample YCAGHSQEHIQKCL (Peptide-87 library clone, tested as clonal phage (peptide fused to pIII)) [Phage-865] ; Anti-CD28 Fab (SEQ ID NOs: 696, 697) signal observed: 1.73
